meta.source: paper PMC7370100

Here, each record is paired with measured > 5 < 30 Foci [%] data.
Test system: V79 cells
ASSAY: Nuclear γH2AX foci and pan-staining (immunocytochemistry)
Assay type: cell-based, hamster
COND: 10 µM, 24 h, V79
READOUT_TYPE: > 5 < 30 Foci [%]

• O=C(CCCCCCC(=O)Nc1ccccc1)NO [Vorinostat, vorinostat, reference compound] = 18.5%
• Nc1ccccc1NC(=O)c1ccc(CNC(=O)OCc2cccnc2)cc1 [Entinostat, entinostat, reference compound] = 43.6%
• Nc1ccc(F)cc1NC(=O)c1ccc(CONC(=O)C=Cc2cccnc2)cc1 = 49.9%
• CN(C)c1ccc(C(=O)N(CC(=O)NCc2ccccc2)Cc2ccc(C(=O)NO)cc2)cc1 = 40.1%

###

Listed below: Mean (% DNA in tail) values for each entry.
Test system: V79 cells
ASSAY: Alkaline comet assay (DNA strand breaks)
COND: 10 µM, 24 h, V79; untreated control 16.8
READOUT_TYPE: Mean (% DNA in tail)

* CN(C)c1ccc(C(=O)N(CC(=O)NCc2ccccc2)Cc2ccc(C(=O)NO)cc2)cc1 | 6.9
* Nc1ccc(F)cc1NC(=O)c1ccc(CONC(=O)C=Cc2cccnc2)cc1 | 34.0
* Nc1ccccc1NC(=O)c1ccc(CNC(=O)OCc2cccnc2)cc1 [Entinostat, entinostat, reference compound] | 34.5
* O=C(CCCCCCC(=O)Nc1ccccc1)NO [Vorinostat, vorinostat, reference compound] | 8.0

###

System: V79 cells
ASSAY: Nuclear γH2AX foci and pan-staining (immunocytochemistry)
Assay type: cell-based, hamster
COND: 10 µM, 24 h, V79
READOUT_TYPE: Pan-Stained [%] (%)

* CN(C)c1ccc(C(=O)N(CC(=O)NCc2ccccc2)Cc2ccc(C(=O)NO)cc2)cc1 | 0.0
* O=C(CCCCCCC(=O)Nc1ccccc1)NO [Vorinostat, vorinostat, reference compound] | 3.2
* Nc1ccccc1NC(=O)c1ccc(CNC(=O)OCc2cccnc2)cc1 [Entinostat, entinostat, reference compound] | 0.4
* Nc1ccc(F)cc1NC(=O)c1ccc(CONC(=O)C=Cc2cccnc2)cc1 | 0.0

###

Tested on: V79 cells
ASSAY: Alkaline comet assay (DNA strand breaks)
COND: 50 µM, 24 h, V79; untreated control 16.8
Known Mean (% DNA in tail) of a selection of compounds
READOUT_TYPE: Mean (% DNA in tail)

- Nc1ccccc1NC(=O)c1ccc(CNC(=O)OCc2cccnc2)cc1 [Entinostat, entinostat, reference compound]: 37.8 % DNA in tail
- O=C(CCCCCCC(=O)Nc1ccccc1)NO [Vorinostat, vorinostat, reference compound]: 13.2 % DNA in tail
- Nc1ccc(F)cc1NC(=O)c1ccc(CONC(=O)C=Cc2cccnc2)cc1 [MPK77]: 48.1 % DNA in tail
- CN(C)c1ccc(C(=O)N(CC(=O)NCc2ccccc2)Cc2ccc(C(=O)NO)cc2)cc1 [DDK137]: 17.3 % DNA in tail

###

Tested on: V79 cells
ASSAY: DNA damage response (DDR) activation by Western blot; further: key: −: no effect; 0: weak effect; +: moderate effect; ++: strong effect; +++: very strong effect as compared to untreated controls
Assay type: cell-based, hamster
COND: summary grade, V79
READOUT_TYPE: DDR Activation

* Nc1ccc(F)cc1NC(=O)c1ccc(CONC(=O)C=Cc2cccnc2)cc1 | −
* CN(C)c1ccc(C(=O)N(CC(=O)NCc2ccccc2)Cc2ccc(C(=O)NO)cc2)cc1 | +
* Nc1ccccc1NC(=O)c1ccc(CNC(=O)OCc2cccnc2)cc1 [Entinostat, entinostat, reference compound] | +
* O=C(CCCCCCC(=O)Nc1ccccc1)NO [Vorinostat, vorinostat, reference compound] | +

###

Listed here are compounds together with their documented ≥ 30 Foci [%].
Tested on: V79 cells
ASSAY: Nuclear γH2AX foci and pan-staining (immunocytochemistry)
Format: cell-based, hamster
COND: 10 µM, 24 h, V79
READOUT_TYPE: ≥ 30 Foci [%] (%)

- Nc1ccc(F)cc1NC(=O)c1ccc(CONC(=O)C=Cc2cccnc2)cc1 [MPK77]: 0.6
- CN(C)c1ccc(C(=O)N(CC(=O)NCc2ccccc2)Cc2ccc(C(=O)NO)cc2)cc1 [DDK137]: 3.5
- O=C(CCCCCCC(=O)Nc1ccccc1)NO [Vorinostat, vorinostat, reference compound]: 2.4
- Nc1ccccc1NC(=O)c1ccc(CNC(=O)OCc2cccnc2)cc1 [Entinostat, entinostat, reference compound]: 10.8

###

System: V79 cells
ASSAY: Alkaline comet assay (DNA strand breaks)
COND: summary grade, V79
READOUT_TYPE: Comet Assay

• O=C(CCCCCCC(=O)Nc1ccccc1)NO [Vorinostat, vorinostat, reference compound] = −
• CN(C)c1ccc(C(=O)N(CC(=O)NCc2ccccc2)Cc2ccc(C(=O)NO)cc2)cc1 [DDK137] = −
• Nc1ccccc1NC(=O)c1ccc(CNC(=O)OCc2cccnc2)cc1 [Entinostat, entinostat, reference compound] = −
• Nc1ccc(F)cc1NC(=O)c1ccc(CONC(=O)C=Cc2cccnc2)cc1 [MPK77] = +

###

System: V79 cells
ASSAY: Nuclear γH2AX foci and pan-staining (immunocytochemistry)
Assay type: cell-based, hamster
COND: 50 µM, 24 h, V79
READOUT_TYPE: Pan-Stained [%] (%)

- Nc1ccccc1NC(=O)c1ccc(CNC(=O)OCc2cccnc2)cc1 [Entinostat, entinostat, reference compound]: 3.2
- O=C(CCCCCCC(=O)Nc1ccccc1)NO [Vorinostat, vorinostat, reference compound]: 26.7
- CN(C)c1ccc(C(=O)N(CC(=O)NCc2ccccc2)Cc2ccc(C(=O)NO)cc2)cc1 [DDK137]: 14.1
- Nc1ccc(F)cc1NC(=O)c1ccc(CONC(=O)C=Cc2cccnc2)cc1 [MPK77]: 0.0

###

Test system: V79 cells
ASSAY: Nuclear γH2AX foci and pan-staining (immunocytochemistry); on gH2AX Pan-Stain: key: −: no effect; 0: weak effect; +: moderate effect; ++: strong effect; +++: very strong effect as compared to untreated controls
Format: cell-based, hamster
COND: summary grade, V79
READOUT_TYPE: gH2AX Pan-Stain

* CN(C)c1ccc(C(=O)N(CC(=O)NCc2ccccc2)Cc2ccc(C(=O)NO)cc2)cc1 | +
* Nc1ccccc1NC(=O)c1ccc(CNC(=O)OCc2cccnc2)cc1 [Entinostat, entinostat, reference compound] | +
* O=C(CCCCCCC(=O)Nc1ccccc1)NO [Vorinostat, vorinostat, reference compound] | ++
* Nc1ccc(F)cc1NC(=O)c1ccc(CONC(=O)C=Cc2cccnc2)cc1 | 0

###

Tested on: SH-SY5Y neuroblastoma cells
ASSAY: Alamar blue assay (cell viability), SH-SY5Y cells
Type: cell-based, human
COND: Homo sapiens, SH-SY5Y, 24 h, approximate IC50, read-out: IC50 - 24 h Treatment, SH-SY5Y
pIC50: −log10 of the molar value.
READOUT_TYPE: pIC50

* O=C(CCCCCCC(=O)Nc1ccccc1)NO [Vorinostat, vorinostat, reference compound] | 4.48

###

Tested on: V79 cells
ASSAY: Nuclear γH2AX foci and pan-staining (immunocytochemistry)
Format: cell-based, hamster
COND: 10 µM, 24 h, V79
Listed here are compounds together with their documented ≤ 5 Foci [%] (cells with γH2AX foci).
READOUT_TYPE: ≤ 5 Foci [%] (cells with γH2AX foci) (%)

- Nc1ccc(F)cc1NC(=O)c1ccc(CONC(=O)C=Cc2cccnc2)cc1 [MPK77]: 49.6
- CN(C)c1ccc(C(=O)N(CC(=O)NCc2ccccc2)Cc2ccc(C(=O)NO)cc2)cc1 [DDK137]: 56.4
- Nc1ccccc1NC(=O)c1ccc(CNC(=O)OCc2cccnc2)cc1 [Entinostat, entinostat, reference compound]: 45.2
- O=C(CCCCCCC(=O)Nc1ccccc1)NO [Vorinostat, vorinostat, reference compound]: 75.9

###

Test system: VC8 hamster cells (BRCA1/2 defect)
ASSAY: Viability of DSB repair defective VC8 versus wild-type V79 cells (Alamar blue); further: key: −: no effect; 0: weak effect; +: moderate effect; ++: strong effect; +++: very strong effect as compared to untreated controls
Assay type: cell-based
COND: summary grade, V79 versus VC8
READOUT_TYPE: DSB Repair def. Cells

* Nc1ccccc1NC(=O)c1ccc(CNC(=O)OCc2cccnc2)cc1 [Entinostat, entinostat, reference compound] | +
* CN(C)c1ccc(C(=O)N(CC(=O)NCc2ccccc2)Cc2ccc(C(=O)NO)cc2)cc1 | +
* Nc1ccc(F)cc1NC(=O)c1ccc(CONC(=O)C=Cc2cccnc2)cc1 | +
* O=C(CCCCCCC(=O)Nc1ccccc1)NO [Vorinostat, vorinostat, reference compound] | ++

###

Tested on: V79 cells
ASSAY: Caspase-3/-7 cleavage by Western blot (apoptosis); further: key: −: no effect; 0: weak effect; +: moderate effect; ++: strong effect; +++: very strong effect as compared to untreated controls
Assay type: cell-based, hamster
COND: summary grade, calculated on the basis of caspase-3,-7 cleavage and SubG1 population, V79
READOUT_TYPE: Apoptosis

* O=C(CCCCCCC(=O)Nc1ccccc1)NO [Vorinostat, vorinostat, reference compound] | ++
* Nc1ccc(F)cc1NC(=O)c1ccc(CONC(=O)C=Cc2cccnc2)cc1 | −
* Nc1ccccc1NC(=O)c1ccc(CNC(=O)OCc2cccnc2)cc1 [Entinostat, entinostat, reference compound] | 0
* CN(C)c1ccc(C(=O)N(CC(=O)NCc2ccccc2)Cc2ccc(C(=O)NO)cc2)cc1 | +

###

≤ 5 Foci [%] (cells with γH2AX foci) by entry:
Tested on: V79 cells
ASSAY: Nuclear γH2AX foci and pan-staining (immunocytochemistry)
Assay type: cell-based, hamster
COND: 50 µM, 24 h, V79
READOUT_TYPE: ≤ 5 Foci [%] (cells with γH2AX foci) (%)

* CN(C)c1ccc(C(=O)N(CC(=O)NCc2ccccc2)Cc2ccc(C(=O)NO)cc2)cc1 [DDK137] | 31.3
* Nc1ccccc1NC(=O)c1ccc(CNC(=O)OCc2cccnc2)cc1 [Entinostat, entinostat, reference compound] | 45.3
* Nc1ccc(F)cc1NC(=O)c1ccc(CONC(=O)C=Cc2cccnc2)cc1 [MPK77] | 58.6
* O=C(CCCCCCC(=O)Nc1ccccc1)NO [Vorinostat, vorinostat, reference compound] | 23.6
